assay: chemical genetic growth profiling, strain panel (AID 1159580);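 also: tested at 20 µM; growth read once vehicle control cultures reached saturation at 30 °C; 1 = growth at the plate median or of vehicle wells; lower values mean less growth of the strain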; conditions: S. cerevisiae deletion strains, growth OD, locus YEL061C, strain CIN8 (second series), hits give low values
The campaign covered roughly 5,500 compounds. About 2,000 (36%) were called active. Roughly 18% stayed inconclusive and do not appear here. Some of the results follow.
readout.type: normalized growth
Format: numeric value only, no unit, no commentary.

Illustrative cases are given below, each with its answer.
CCCCCCCCC(=O)NCc1ccc(O)c(OC)c1; 0.982
CN1CC(=O)N=C1N; 1.02
CCCCNC(=O)NS(=O)(=O)c1ccc(C)cc1; 1.01

**Q:** For the molecule `Cc1ccc(C(=O)Nc2ccc(S(=O)(=O)O)c3cc(S(=O)(=O)O)cc(S(=O)(=O)O)c23)cc1NC(=O)c1cccc(NC(=O)Nc2cccc(C(=O)Nc3cc(C(=O)Nc4ccc(S(=O)(=O)O)c5cc(S(=O)(=O)O)cc(S(=O)(=O)O)c45)ccc3C)c2)c1` , give its reported normalized growth.
**A:** 1.01

**Q:** Answer with the recorded normalized growth for the molecule listed here: COc1cc([C@@H]2c3cc4c(cc3C(OC3O[C@@H]5COC(C)O[C@H]5[C@H](O)[C@H]3O)C3COC(=O)[C@@H]32)OCO4)cc(OC)c1O (some centres not stated)
**A:** 1.03
